molecular target: BACE1 in primary mouse cortical neurons (mouse, UniProt P56818 46-501); test: cell-based or functional assay
Sequence (P56818 46-501): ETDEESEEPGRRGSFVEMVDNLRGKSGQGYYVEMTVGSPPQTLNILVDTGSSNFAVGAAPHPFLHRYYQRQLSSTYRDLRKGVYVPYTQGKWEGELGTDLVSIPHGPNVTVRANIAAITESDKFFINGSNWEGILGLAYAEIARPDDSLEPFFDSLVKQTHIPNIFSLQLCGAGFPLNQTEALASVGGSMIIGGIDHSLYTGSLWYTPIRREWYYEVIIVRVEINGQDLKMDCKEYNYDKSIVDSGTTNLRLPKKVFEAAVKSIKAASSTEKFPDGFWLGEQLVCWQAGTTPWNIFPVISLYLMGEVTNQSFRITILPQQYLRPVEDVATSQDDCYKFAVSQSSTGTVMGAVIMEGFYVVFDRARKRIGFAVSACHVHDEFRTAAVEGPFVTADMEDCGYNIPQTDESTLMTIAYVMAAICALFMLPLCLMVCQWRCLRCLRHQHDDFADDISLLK
METRIC NAME: IC50, Abeta x-40 in mouse cortical neurons (nM)
Dear colleague, please return just the value in nM, with no unit written.

Task: Specify reported IC50, Abeta x-40 in mouse cortical neurons for the binder shown: 5883 (antibody, V domains shown, anti-BACE1 IgG) VH: QVQLVQSGAEVKKPGSSVKVSCKASGGTFSSYAISWVRQAPGQGLEWMGGIIPIGGGANYAQKFQGRVTITADESTSTAYMELSSLRSEDTAVYYCARSGGTKYGMLDVWGQGTMVTVSS VL: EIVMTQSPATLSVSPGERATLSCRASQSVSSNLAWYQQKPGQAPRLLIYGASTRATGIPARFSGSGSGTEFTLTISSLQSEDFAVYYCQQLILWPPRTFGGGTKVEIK
Output: 9.11

Task: Please report IC50, Abeta x-40 in mouse cortical neurons for the following binder: 5747 (antibody, V domains shown, anti-BACE1 IgG) VH: QLQLQESGPGLVKPSETLSLTCTVSGGSISSSSYYWGWIRQPPGKGLEWIGNIYYSGSTYYNPSLKSRVTISVDTSKNQFSLKLSSVTAADTAVYYCARLGHGYSYFDLWGRGTLVTVSS VL: EIVLTQSPATLSLSPGERATLSCRASQSVSSYLAWYQQKPGQAPRLLIYDASNRATGIPARFSGSGSGTDFTLTISSLEPEDFAVYYCQQVYLWPPRTFGGGTKVEIK
Output: 25.6
